Parameter: EC50. Scope: all listed entries.
target: Mu-type opioid receptor (Homo sapiens) + Delta-type opioid receptor (Homo sapiens) (UniProt P35372+P41143); assay: OPRM1-OPRD1 heterodimer agonist potency – cell-based, luminescence, counter-screen for MC4R biased agonist project, dose response (AID 602264); settings: cell-based OPRM1-OPRD1 heterodimerization
Sequence (P35372 whole entry, looked up): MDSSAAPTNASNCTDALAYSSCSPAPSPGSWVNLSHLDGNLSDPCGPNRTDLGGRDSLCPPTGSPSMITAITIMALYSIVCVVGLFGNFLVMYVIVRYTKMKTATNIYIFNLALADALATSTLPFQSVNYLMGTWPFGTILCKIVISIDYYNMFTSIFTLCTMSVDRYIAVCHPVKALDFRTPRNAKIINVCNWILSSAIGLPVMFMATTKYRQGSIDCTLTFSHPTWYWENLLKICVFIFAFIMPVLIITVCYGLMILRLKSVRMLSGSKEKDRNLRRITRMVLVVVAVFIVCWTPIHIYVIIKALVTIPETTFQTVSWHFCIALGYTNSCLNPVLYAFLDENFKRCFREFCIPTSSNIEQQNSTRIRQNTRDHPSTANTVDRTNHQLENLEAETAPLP
Sequence (P41143 whole entry, looked up): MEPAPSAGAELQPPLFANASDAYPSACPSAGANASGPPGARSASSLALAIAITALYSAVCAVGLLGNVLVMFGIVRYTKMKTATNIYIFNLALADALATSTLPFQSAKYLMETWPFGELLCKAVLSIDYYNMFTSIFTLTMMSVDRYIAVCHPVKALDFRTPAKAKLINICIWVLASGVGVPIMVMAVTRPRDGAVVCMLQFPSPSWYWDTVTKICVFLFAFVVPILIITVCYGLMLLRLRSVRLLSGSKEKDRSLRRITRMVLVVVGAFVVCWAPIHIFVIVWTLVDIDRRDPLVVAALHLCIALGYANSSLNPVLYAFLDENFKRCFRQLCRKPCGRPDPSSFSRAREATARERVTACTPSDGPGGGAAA
Calls of active or inactive are those of the source. The rule behind the calls is not given here.

{"columns": ["Molecule", "EC50"],
 "data": [
  ["N#Cc1sc2nc(-c3cccs3)cc(-c3ccc(F)cc3)c2c1N", "> 92.5 µM (inactive)"],
  ["O=C(COc1ccc2c(c1)OCO2)Nc1ccc2c(c1)oc1ccccc12", "> 92.5 µM (inactive)"],
  ["CCSc1nnc(NC(=O)c2csc3c2CCCC3)s1", "> 92.5 µM (inactive)"],
  ["COc1ccc(-c2sc3ccccc3c2-c2ccc(OCCN(C)C)cc2)cc1", "> 92.5 µM (inactive)"],
  ["O=C(N=Nc1c(O)n(Cc2ccccc2)c2ccccc12)c1cc2ccccc2cc1O", "> 92.5 µM (inactive)"],
  ["CC(=O)Nc1cc(-c2ccccc2N(C)C)cn2c(-c3ccc(F)c(Cl)c3)cnc12", "> 64.6 µM (inactive)"],
  ["COc1ccc(-c2cc(NC(C)=O)c3ncc(-c4ccc(OC)c(OC)c4)n3c2)cc1OC", "> 64.6 µM (inactive)"],
  ["Cc1ccc(C2=NN(C(=O)c3cccs3)C(c3ccccc3O)C2)cc1 (stereo not given)", "> 64.6 µM (inactive)"],
  ["O=C1c2cccc3cccc(c23)C(=O)N1CC1CCN(CC(O)COc2ccc3ccccc3c2)CC1 (stereo not given)", "> 10.3 µM (inactive)"],
  ["CCOc1ccc(Cn2c3ccc(OC)cc3c3nc4ccccc4nc32)cc1", "> 64.6 µM (inactive)"],
  ["CCc1ccc(C2CC(c3ccc(F)cc3)Nc3nc(N)nn32)cc1 (stereo not given)", "> 92.5 µM (inactive)"],
  ["COc1ccc2c(c1)CCc1c(C(=O)Nc3ccn(Cc4ccc(C)cc4)n3)noc1-2", "> 92.4 µM (inactive)"],
  ["COc1ccc(-c2cc(NC(C)=O)c3ncc(-c4cccc(C(C)=O)c4)n3c2)cc1OC", "> 64.6 µM (inactive)"],
  ["Cc1ccccc1NC(=O)c1ccc(COc2ccc3c(C)cc(=O)oc3c2)cc1", "> 64.6 µM (inactive)"],
  ["CC(=O)Nc1cc(-c2cccnc2)cn2c(-c3cccc(C(F)(F)F)c3)cnc12", "> 92.5 µM (inactive)"],
  ["CCN1CCC(O)(/C=C/c2ccc(C(C)C)cc2)C(C(=O)/C=C/c2ccc(C(C)C)cc2)C1 (stereo not given)", "> 64.6 µM (inactive)"],
  ["CCCCCCOc1ccc(/C(C)=N/NC2=NCCN2)cc1", "> 92.4 µM (inactive)"],
  ["CCCCCCCNC(=O)C1(CC2CC(c3ccc(Cl)cc3)=NO2)CCNCC1 (stereo not given)", "> 64.6 µM (inactive)"],
  ["Cc1ccc(O)c(C(=O)/C=C/c2ccc3c(c2)OCCO3)c1", "> 92.5 µM (inactive)"],
  ["Cc1ccc(C(=O)Nc2nc(C(N)Cc3ccc(C(F)(F)F)cc3)cs2)cc1 (stereo not given)", "> 64.6 µM (inactive)"],
  ["COc1ccccc1-c1cc(NC(C)=O)c2ncc(-c3ccccc3)n2c1", "> 92.4 µM (inactive)"],
  ["CC(=O)Nc1cc(-c2ccccc2N(C)C)cn2c(-c3ccccc3)cnc12", "> 92.4 µM (inactive)"],
  ["O=C(CCN1C(=O)/C(=C/C=C/c2ccccc2)SC1=S)Nc1ccccn1", "> 92.5 µM (inactive)"],
  ["CC(=O)Nc1ccc(-c2csc(NC(=O)Nc3ccccc3)n2)cc1", "> 64.6 µM (inactive)"],
  ["COc1ccc(-c2cc(NC(C)=O)c3ncc(-c4ccccc4)n3c2)c(OC)c1", "> 92.4 µM (inactive)"],
  ["CC(=O)Nc1cc(-c2ccccc2)cn2c(-c3ccc(F)cc3)cnc12", "> 64.6 µM (inactive)"],
  ["CCN1/C(=C/c2ccc3cc(C)ccc3[n+]2CC)Sc2cc(C)c(C)cc21", "> 10.3 µM (inactive)"],
  ["Cc1c(CCOC(=O)CC23CC4CC(CC(C)(C4)C2)C3)sc[n+]1CC(=O)c1ccccc1", "> 92.5 µM (inactive)"],
  ["Cc1cccnc1C(c1ccc(F)cc1)N(C)C(=O)C1CCN(CCOc2ccc(Cl)cc2Cl)CC1 (stereo not given)", "> 92.5 µM (inactive)"],
  ["CC(C)c1ccc(NC(=O)CSc2ncccc2C(=O)Oc2cccc([N+](=O)[O-])c2)cc1", "> 92.5 µM (inactive)"],
  ["COc1cc(-c2cc(NC=O)c3ncc(-c4ccccc4)n3c2)cc(OC)c1OC", "> 64.6 µM (inactive)"],
  ["Cc1cc(C)c2sc(N(CCCN(C)C)C(=O)COc3ccc(Cl)cc3)nc2c1", "> 92.5 µM (inactive)"],
  ["CC(O)CC(=O)OC[C@]12CC[C@H]3[C@@](C)(CC[C@H]4C(C)(C)CCC[C@]34C)[C@@H]1CC(C1=CC(=O)OC1O)O2 (stereo not given in full)", "> 64.6 µM (inactive)"],
  ["COc1ccc(NC(=O)Nc2nnc(-c3ccccc3SCc3ccccc3)s2)cc1", "> 92.5 µM (inactive)"],
  ["CC(=O)Nc1cc(-c2cccnc2)cn2c(-c3ccc(F)cc3)cnc12", "> 64.6 µM (inactive)"],
  ["CCCCCCCCCCCCCCCC[N+](C)(C)Cc1ccc(F)cc1", "> 92.5 µM (inactive)"],
  ["O=C(CSc1ccccc1)Nc1nnc(/C=C/c2ccccc2)s1", "> 92.5 µM (inactive)"],
  ["COc1cccc(-c2cnc3c(NC(C)=O)cc(-c4ccc(C(=O)N5CCOCC5)cc4)cn23)c1", "> 64.6 µM (inactive)"],
  ["CC(=O)Nc1cc(-c2ccc(C(=O)NC3CC3)cc2)cn2c(-c3cccc(C(F)(F)F)c3)cnc12", "> 64.6 µM (inactive)"],
  ["CCN1CCN(Cc2ccc(NC(=O)c3cc(NC(=O)C(=O)c4c[nH]c5ccccc45)cc(OC)c3)cc2C(F)(F)F)CC1", "> 92.5 µM (inactive)"]
]}
